# Tested on: A-549
# Experimental Details: SRB colorimetric cell growth inhibition assay, A-549
# Format: cell-based
# Experimental Setup: A-549; cell killing (cytotoxic effect); read-out: LC50 A-549
Assay Metric: CC50 (µM)

molecule="COc1cc2c(cc1O)oc(=O)c1c2c(-c2ccc(OC(=O)[C@H](C)N)c(OC)c2)c2c3cc(OC)c(O)cc3ccn21.Cl [Compound 238]" assay_metric=CC50 obs_value=16.5
molecule="COc1cc2ccn3c(c(-c4ccc(OC(=O)[C@@H](N)C(C)C)c(OC)c4)c4c5cc(OC)c(OC(=O)[C@@H](N)C(C)C)cc5oc(=O)c43)c2cc1OC [Compound 19]" assay_metric=CC50 obs_value=6.32
molecule="COc1cc2ccn3c(c(-c4ccc(OC(=O)[C@@H](N)Cc5ccccc5)c(OC)c4)c4c5cc(OC)c(OC(=O)[C@@H](N)Cc6ccccc6)cc5oc(=O)c43)c2cc1OC [Compound 13]" assay_metric=CC50 obs_value=12.4
molecule="COc1cc(-c2c3c4cc(OC)c(OC(=O)[C@H](C)N)cc4oc(=O)c3n3ccc4cc(O)c(OC)cc4c23)ccc1O.Cl [Compound 240]" assay_metric=CC50 obs_value=1.51
molecule="COc1cc(-c2c3n(c4c(=O)oc5cc(OC(C)=O)c(OC)cc5c24)CCc2cc(OC)c(OC(C)=O)cc2-3)ccc1OC(C)=O [Compound 94]" assay_metric=CC50 obs_value=15.9

---

# Tested on: IGROV-ET
# Experimental Details: SRB colorimetric cell growth inhibition assay, IGROV-ET (ET-743 resistant)
# Type: cell-based
# Experimental Setup: Homo sapiens, IGROV-ET; GI=growth inhibition; read-out: GI50 IGROV-ET
Assay Metric: GI50 (nM)

structure_smiles_string=COc1cc(-c2c3c4cc(OC)c(O)cc4oc(=O)c3n3ccc4c([N+](=O)[O-])cccc4c23)ccc1O target=IGROV-ET value_units=nM obs_value=20100
structure_smiles_string=CC[C@H](C)[C@H](NC(=O)OC(C)(C)C)C(=O)Oc1ccc(-c2c3c4cc(OC)c(OC(=O)[C@@H](NC(=O)OC(C)(C)C)[C@@H](C)CC)cc4oc(=O)c3n3ccc4cc(OC(=O)[C@@H](NC(=O)OC(C)(C)C)[C@@H](C)CC)c(OC)cc4c23)cc1OC target=IGROV-ET value_units=nM obs_value=8780
structure_smiles_string=COc1cc(-c2c3c4cc(OC)c(OC(=O)[C@H](C)N)cc4oc(=O)c3n3ccc4cc(OC(=O)[C@H](C)N)c(OC)cc4c23)ccc1OC(=O)[C@H](C)N target=IGROV-ET value_units=nM obs_value=31.3
structure_smiles_string=COc1cc(-c2c3n(c4c(=O)oc5cc(OC(=O)[C@@H]6CCCN6)c(OC)cc5c24)CCc2cc(OC(=O)[C@@H]4CCCN4)c(OC)cc2-3)ccc1OC(=O)[C@@H]1CCCN1 target=IGROV-ET value_units=nM obs_value=482
structure_smiles_string=COc1cc(-c2c3n(c4c(=O)oc5cc(OC(=O)[C@@H](N)COCc6ccccc6)c(OC)cc5c24)CCc2c-3cc(OC)c(OC)c2OC(=O)[C@@H](N)COCc2ccccc2)ccc1OC(=O)[C@@H](N)COCc1ccccc1 target=IGROV-ET value_units=nM obs_value=1220

---

# System: DU-145
# Experimental Details: SRB colorimetric cell growth inhibition assay, DU-145
# Assay type: cell-based
# Experimental Setup: DU-145; GI=growth inhibition; read-out: GI50 DU-145
Assay Metric: GI50 (µM)

compound="COc1cc(-c2c3n(c4c(=O)oc5cc(OC(=O)[C@@H](N)C(C)C)c(OC)cc5c24)CCc2cc(OC(=O)[C@@H](N)C(C)C)c(OC)cc2-3)ccc1OC(=O)[C@@H](N)C(C)C [Compound 37]" obs_value=0.0677
compound=COc1cc(-c2c3c4cc(OC)c(OC(=O)[C@@H](N)C(C)C)cc4oc(=O)c3n3ccc4c(OC(=O)[C@@H](N)C(C)C)c(OC)c(OC)cc4c23)ccc1OC(=O)[C@@H](N)C(C)C obs_value=0.0575
compound=COc1cc(-c2c3n(c4c(=O)oc5cc(OS(C)(=O)=O)c(OC)cc5c24)CCc2cc(OS(C)(=O)=O)c(OC)cc2-3)ccc1OS(C)(=O)=O obs_value=0.743
compound=COc1cc2ccn3c(c(-c4ccc(OC(=O)[C@@H](N)Cc5ccccc5)c(OC)c4)c4c5cc(OC)c(OC(=O)[C@@H](N)Cc6ccccc6)cc5oc(=O)c43)c2cc1OC obs_value=0.505
compound=COc1cc(-c2c3c4cc(OC)c(OC(=O)[C@H](C)N)cc4oc(=O)c3n3ccc4c(OC(=O)[C@H](C)N)c(OC)c(OC)cc4c23)ccc1OC(=O)[C@H](C)N obs_value=0.0527
compound=COc1cc2c(cc1O)oc(=O)c1c2c(-c2ccc(OC(=O)[C@H](C)N)c(OC)c2)c2c3cc(OC)c(O)cc3ccn21.Cl obs_value=0.0458
compound=COc1cc(-c2c3n(c4c(=O)oc5cc(OC(C)=O)c(OC)cc5c24)CCc2cc(OC)c(OC(C)=O)cc2-3)ccc1OC(C)=O obs_value=13.1
